Biological target: SARS-COV-2 Wuhan (WT) RBD (SARS-COV-2, UniProt P0DTC2 319-541)
Note to self: use label 1 only for Kd readings below 0.3 nM; a reading exactly at 0.3 nM still gets label 0.

Task item: is_below(Kd, 0.3 nM) for BP2A3 Nb-huFc (Fc fusion) EVQLQASGGGFVQPGGSLRLSCAASGRTFSAYSMGWFRQAPGKEREFVSAISAGDGAASYYADSVKGRFTISRDNSKNTVYLQMNSLRAEDTATYYCAHYYTTSATLDYAYWGQGTQVTVSS ?
Reply: label 0

Task item: is_below(Kd, 0.3 nM) for AP1A5 Nb-huFc (Fc fusion) EVQLQASGGGFVQPGGSLRLSCAASGSTASHYTMGWFRQAPGKEREFVSAISSGRDHAKQYADSVKGRFTISRDNSKNTVYLQMNSLRAEDTATYYCAYEEINATQKDTLYWGQGTQVTVSS ?
Reply: label 0

Task item: is_below(Kd, 0.3 nM) for AP1B6 Nb-huFc (Fc fusion) EVQLQASGGGFVQPGGSLRLSCAASGSAFQIYAMGWFRQAPGKEREFVSAISSTDSETDHYADSVKGRFTISRDNSKNTVYLQMNSLRAEDTATYYCAVNGFDYAHSKAGPQVYWGQGTQVTVSS ?
Reply: label 0

Task item: is_below(Kd, 0.3 nM) for KP1C9 Nb-huFc (Fc fusion) EVQLQASGGGFVQPGGSLRLSCAASGRTFDAYSMGWFRQAPGKEREFVSAISSWSDDWTAYADSVKGRFTISRDNSKNTVYLQMNSLRAEDTATYYCALQNTKEDRLYWGQGTQVTVSS ?
Reply: label 1

Task item: is_below(Kd, 0.3 nM) for KP2C6 Nb-huFc (Fc fusion) EVQLQASGGGFVQPGGSLRLSCAASGRTFTSFHMGWFRQAPGKEREFVSAISSGDDGTQYYADSVKGRFTISRDNSKNTVYLQMNSLRAEDTATYYCAAYTTTTVPQYWGQGTQVTVSS ?
Reply: label 0

Task item: is_below(Kd, 0.3 nM) for AP1D4 Nb-huFc (Fc fusion) EVQLQASGGGFVQPGGSLRLSCAASGHTFDAHRMGWFRQAPGKEREFVSAISSWGQSSTYYADSVKGRFTISRDNSKNTVYLQMNSLRAEDTATYYCAQTDEGNQYVYWGQGTQVTVSS ?
Reply: label 0

Task item: is_below(Kd, 0.3 nM) for BP1A10 Nb-huFc (Fc fusion) EVQLQASGGGFVQPGGSLRLSCAASGQPSDRYIMGWFRQAPGKEREFVSAISQGAANKTAYADSVKGRFTISRDNSKNTVYLQMNSLRAEDTATYYCATHFNWQNYSYWGQGTQVTVSS ?
Reply: label 0

Task item: is_below(Kd, 0.3 nM) for BP1B1 Nb-huFc (Fc fusion) EVQLQASGGGFVQPGGSLRLSCAASGRTFSGYIMGWFRQAPGKEREFVSAISQGDSYASYYADSVKGRFTISRDNSKNTVYLQMNSLRAEDTATYYCALYDINTVPYYWGQGTQVTVSS ?
Reply: label 1

Task item: is_below(Kd, 0.3 nM) for AP1C3 Nb-huFc (Fc fusion) EVQLQASGGGFVQPGGSLRLSCAASGRTYRGYSMGWFRQAPGKEREFVSAISSWSDDWTAYADSVKGRFTISRDNSKNTVYLQMNSLRAEDTATYYCAWQYIDEIQYYWGQGTQVTVSS ?
Reply: label 1
